Source: ChEMBL document CHEMBL1155987

Parameter log10 IC50: see the listing below.
Protein target, amino acids: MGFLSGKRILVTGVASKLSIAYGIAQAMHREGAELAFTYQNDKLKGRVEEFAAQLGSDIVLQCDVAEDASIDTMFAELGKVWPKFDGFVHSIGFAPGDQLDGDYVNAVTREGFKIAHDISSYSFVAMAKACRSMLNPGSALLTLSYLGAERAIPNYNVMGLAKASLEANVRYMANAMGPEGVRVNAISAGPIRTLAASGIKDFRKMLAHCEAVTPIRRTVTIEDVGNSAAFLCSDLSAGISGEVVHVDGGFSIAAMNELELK
Field: value | Transform: log10 | Quantity: IC50 | Unit: nM

• Cc1c(CN(C)C(=O)/C=C/c2cnc3c(c2)NCCC(=O)N3)[nH]c2ccccc12 = 2.92
• Cc1c(CN(C)C(=O)/C=C/c2cnc3c(c2)CNCCN3)oc2ccccc12 = 1.15
• Cc1c(CN(C)C(=O)/C=C/c2cnc3c(c2)NCCC(=O)N3)oc2ccccc12 = 1.40
• CN(Cc1cc2ccccc2n1C)C(=O)/C=C/c1cnc2c(c1)CNCC(=O)N2 = 2.52

Pending compound:
Supply log10 IC50 value. Item: Cc1c(CN(C)C(=O)/C=C/c2cnc3c(c2)CNCCCN3)oc2ccccc12
1.20
